# Procedure Summary: inhibition of 3D7 malaria parasite growth – strain 3D7 (AID 2306);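 also: 0% = DMSO wells and 100% = chloroquine plus artemisinin control wells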
# Condition Label: P. falciparum 3D7 erythrocytic growth, LDH absorbance, 72 h; at 2 µM; hits give high values
Calls of active or inactive are those of the source. No rule for the calls is given here.
Record form. Attribute: growth inhibition. Fill in for each entry.

Past entries and their recorded results:
- Compound: "CC(=O)N(Cc1ccc(-c2ccc(CNCCc3ccccc3)cc2)cc1)C1CCN(Cc2ccccc2)CC1"
  growth inhibition: "95% (active)"
- Compound: "COC(=O)/C=C/c1ccc(CC(C)NCC(O)c2cccc(Cl)c2)cc1 (stereo not drawn)"
  growth inhibition: "99% (active)"
- Compound: "Cc1[nH]c2cc(Cl)ccc2c1C1=CCN(CCCCC2(C)C(=O)Nc3ccccc32)CC1 (stereo not drawn)"
  growth inhibition: "94% (active)"
- Compound: "CO/C(=C\\C=C\\c1cc2cc(Cl)c(Cl)cc2[nH]1)C(=O)N[C@H]1CN2CCC1CC2"
  growth inhibition: "82% (active)"
- Compound: "Cc1cc2cc(CNCCc3ccccc3Br)ccc2nc1N"
  growth inhibition: "98% (active)"
- Compound: "COCC(=O)N(Cc1cccc(-c2ccc(CNCCc3ccccc3)cc2)c1)C1CCN(Cc2ccccc2)CC1"
  growth inhibition: "93% (active)"
- Compound: "CC(C)CNCc1ccc(-c2ccc(CN(C(=O)Nc3ccccc3)C3CCN(Cc4ccccc4)CC3)cc2)cc1"
  growth inhibition: "101% (active)"

Proceeding to the next compound to report its growth inhibition.
q: Please report the recorded growth inhibition for `c1ccc2c(NCCCCCCCCCNc3c4ccccc4nc4ccccc34)c3ccccc3nc2c1` .
a: 100% (active)

* * *

# Procedure Summary: HepG2 cytotoxicity, primary screen, cytotoxicity control for P. falciparum antimalarial project, cell-based, ATP luminescence (AID 2303);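 also: 0% = DMSO wells and 100% = digitonin-killed cells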
# Condition Label: HepG2 viability, 24-48 h, at 10 µM, hits give high values
Calls of active or inactive are those of the source.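 How the source made its calls: active means inhibition above 50%; inactive means the rest.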
Record form. Attribute: inhibition. Fill in for each entry.

Past entries and their recorded results:
- Compound: "O=C(NC1CCN(CC2(c3ccc(Cl)cc3)CCC2)CC1)c1cscn1"
  inhibition: "-2% (inactive)"
- Compound: "Cc1ccc2c(C3=CCN(CCCCC4(C)C(=O)Nc5c(F)cccc54)CC3)c(C)[nH]c2c1 (stereo not given)"
  inhibition: "5% (inactive)"
- Compound: "N#Cc1ccc(N(CC(=O)NCCc2ccccc2)CC2CC2)c2ccccc12"
  inhibition: "0% (inactive)"
- Compound: "CC[C@H]1CN2CC[C@H]1C[C@H]2[C@H](O)c1ccnc2ccc(OC)cc12"
  inhibition: "-8% (inactive)"

Hey, can you go through the list below and give me inhibition for every item?
1. CN(C(=O)OCc1ccccc1)C1CCC(CCN2CCC3(CC2)C(=O)NCN3c2cccc(C(F)(F)F)c2)(c2ccccc2)CC1 (stereo not given)
2. C/C=C1\CN2CC[C@H]1C[C@@H]2[C@@H](O)c1ccnc2ccc(O)cc12
3. CC[C@H]1CN2CC[C@H]1C[C@H]2[C@H](O)c1cc(-c2cccc(Cl)c2)nc2ccc(OC)cc12
4. C=C[C@H]1CN2CC[C@H]1C[C@H]2[C@H](OS(=O)(=O)O)c1ccnc2ccccc12
5. COc1ccc(F)cc1-c1csc(N(c2ccc(F)cc2)C2CCNCC2)n1
6. CC[C@H]1CN2CC[C@@H]1C[C@H]2[C@H](O)c1ccnc2ccc(OC)cc12

a:
1. 19% (inactive)
2. -10% (inactive)
3. 16% (inactive)
4. 8% (inactive)
5. 15% (inactive)
6. -8% (inactive)
